Where these numbers come from: patent US10092537B2

Biological target: human PAI-1 (Homo sapiens, UniProt P05121)
Sequence (P05121 24-402): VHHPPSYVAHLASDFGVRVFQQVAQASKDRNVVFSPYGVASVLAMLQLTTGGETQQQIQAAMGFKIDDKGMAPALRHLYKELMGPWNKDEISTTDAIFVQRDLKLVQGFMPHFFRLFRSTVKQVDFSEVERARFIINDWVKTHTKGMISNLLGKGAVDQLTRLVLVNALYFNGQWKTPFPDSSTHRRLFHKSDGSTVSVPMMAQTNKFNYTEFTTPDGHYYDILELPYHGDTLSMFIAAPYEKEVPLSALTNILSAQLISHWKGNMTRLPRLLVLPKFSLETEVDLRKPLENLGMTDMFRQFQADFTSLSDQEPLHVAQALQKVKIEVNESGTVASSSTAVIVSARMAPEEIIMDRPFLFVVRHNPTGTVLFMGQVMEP
Assay: Measurement of PAI-1 inhibitory activity of compound group 1 (t-PA, Spectrozyme t-PA chromogenic substrate)
Conditions: read-out: PAI-1 activity %
Structures can show the parent of a compound that is named as a salt.
Below is a list of entries, each paired with its recorded activity at 2.5 µM value.
measured.attribute: activity at 2.5 µM (%)

[[record]]
compound = "O=C(/C=C/c1cccc(-c2cccnc2)c1)Nc1ccc(Cl)cc1C(=O)O"
meas_value = 92.3

[[record]]
compound = "O=C(Nc1ccc(C#CC2CCCCC2)cc1C(=O)O)c1ccc(C2CCCCC2)cc1"
meas_value = 0

[[record]]
compound = "CC(C)(C)c1ccc(OCC(=O)Nc2ccc(Cl)cc2C(=O)O)cc1"
meas_value = 81.4

[[record]]
compound = "CC(C)(C(=O)Nc1ccc(Cl)cc1C(=O)O)c1cccc(-c2ccoc2)c1"
meas_value = 53.1

[[record]]
compound = "O=C(Nc1ccc(C23CC4CC(CC(C4)C2)C3)cc1)C(=O)Nc1ccc(Cl)cc1C(=O)O"
meas_value = 88.4

[[record]]
compound = "O=C(COc1ccc(C23CC4CC(CC(C4)C2)C3)cc1)Nc1ccc(-c2ccoc2)cc1C(=O)O"
meas_value = 9.7

[[record]]
compound = "CC1(c2ccc(C(=O)Nc3ccc(Cl)cc3C(=O)O)cc2)CCCCC1"
meas_value = 41.5

[[record]]
compound = "O=C(Nc1ccc(Cl)cc1C(=O)O)c1cccc(OCc2ccc3ccccc3n2)c1"
meas_value = 87.8

[[record]]
compound = "O=C(COc1cccc(-c2ccccc2)c1)Nc1ccc(Cl)cc1C(=O)O"
meas_value = 55.7

[[record]]
compound = "O=C(Nc1ccc(Cl)cc1C(=O)O)c1cc(C(F)(F)F)cc(C(F)(F)F)c1"
meas_value = 98.4

[[record]]
compound = "O=C(Nc1ccc(Cl)cc1-c1nnn[nH]1)c1cccc(-c2cccc3cccnc23)c1"
meas_value = 91.3

[[record]]
compound = "O=C(Nc1ccc(Cl)cc1C(=O)O)c1cccc(-c2cccc3ccccc23)c1"
meas_value = 0

[[record]]
compound = "O=C(O)c1cc(Cl)ccc1NC(=O)N1CCN(C(c2ccccc2)c2ccccc2)CC1 [Example 75, hydrochloride]"
meas_value = 86.4

[[record]]
compound = "O=C(Nc1ccc(Cl)cc1C(=O)[O-])c1ccc(-c2cccc3cccnc23)cc1.[Na+]"
meas_value = 90.4

[[record]]
compound = "O=C(Nc1ccc(Cl)cc1C(=O)O)c1ccc(C2CCCCC2)cc1"
meas_value = 44.7

[[record]]
compound = "O=C(O)c1cc(Cl)ccc1NC(=O)c1cccc2c1Cc1ccccc1-2"
meas_value = 94.8

[[record]]
compound = "O=C(CC(c1ccccc1)c1ccccc1)Nc1ccc(Cl)cc1C(=O)O"
meas_value = 72.4

[[record]]
compound = "O=C(Nc1ccc(Cl)cc1C(=O)[O-])c1cccc(-c2cccc3cnccc23)c1.[Na+]"
meas_value = 22.6

[[record]]
compound = "O=C(Cn1ccc2cc(Br)ccc21)Nc1ccc(Cl)cc1C(=O)O"
meas_value = 102

[[record]]
compound = "O=C(Nc1ccc(-c2ccccc2)cc1)Nc1ccc(Cl)cc1C(=O)O"
meas_value = 39.6

[[record]]
compound = "O=C(Nc1ccc(Cl)cc1C(=O)O)c1ccc(C23CC4CC(CC(C4)C2)C3)cc1"
meas_value = 19.3

[[record]]
compound = "O=C(Nc1ccc(Cl)cc1C(=O)O)c1ccc(-c2ccc(F)cc2)s1"
meas_value = 84.8

[[record]]
compound = "O=C(COc1cccc(C2CCCCC2)c1)Nc1ccc(Cl)cc1C(=O)O"
meas_value = 98

[[record]]
compound = "O=C(Nc1ccc(Cl)cc1C(=O)O)c1ccc(C(=O)c2ccccc2)cc1 [Known compound (4), reference compound]"
meas_value = 79.6

[[record]]
compound = "Cn1cc(C(=O)C(=O)Nc2ccc(Cl)cc2C(=O)O)c2cc(-c3ccoc3)ccc21"
meas_value = 87.4

[[record]]
compound = "O=C(Nc1ccc(Cl)cc1C(=O)O)c1ccc(OCC23CC4CC(CC(C4)C2)C3)cc1"
meas_value = 7.2

[[record]]
compound = "O=C(Nc1ccc(Cl)cc1C(=O)[O-])c1cccc(-c2ccncc2)c1.[Na+]"
meas_value = 100

[[record]]
compound = "O=C(CCCOc1ccc(C23CC4CC(CC(C4)C2)C3)cc1)Nc1ccc(Cl)cc1C(=O)O"
meas_value = 29.8

[[record]]
compound = "O=C(CN1CCN(C(c2ccccc2)c2ccccc2)CC1)Nc1ccc(Cl)cc1C(=O)O"
meas_value = 89.6

[[record]]
compound = "O=C(CCc1cccc(-c2ccoc2)c1)Nc1ccc(Cl)cc1C(=O)O"
meas_value = 95.7

[[record]]
compound = "O=C(Nc1ccc(Cl)cc1C(=O)O)c1ccc(C(O)C23CC4CC(CC(C4)C2)C3)cc1 (stereo not shown)"
meas_value = 89.9

[[record]]
compound = "O=C(Nc1ccc(C2=CCCCC2)cc1C(=O)O)c1ccc(C2CCCCC2)cc1"
meas_value = 1

[[record]]
compound = "O=C(COc1ccc(-c2ccoc2)cc1)Nc1ccc(Cl)cc1C(=O)O"
meas_value = 93.2

[[record]]
compound = "O=C(Nc1ccc(Cl)cc1C(=O)O)C(=O)c1c[nH]c2ccc(OCc3ccccc3)cc12"
meas_value = 38.6

